Source: ChEMBL document CHEMBL1131819

biological target: Cathepsin G (Homo sapiens) (UniProt P08311); assay: Second order rate constant for the inhibition of leukocyte Cathepsin G (Cat G).
Sequence (P08311 whole entry): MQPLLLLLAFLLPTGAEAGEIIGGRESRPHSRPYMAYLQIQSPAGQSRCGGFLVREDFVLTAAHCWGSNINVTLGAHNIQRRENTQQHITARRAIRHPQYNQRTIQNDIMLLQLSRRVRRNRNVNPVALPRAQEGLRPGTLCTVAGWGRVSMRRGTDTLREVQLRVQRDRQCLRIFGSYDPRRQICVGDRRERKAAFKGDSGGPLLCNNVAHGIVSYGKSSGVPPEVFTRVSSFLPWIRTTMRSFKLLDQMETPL
Give log10 of K inact/Ki for every item shown.
Could you please treat all values as log10 of K inact/Ki in M⁻¹ s⁻¹?

-- ask Dear colleague, I am looking for the recorded log10 of K inact/Ki of the following compound: O=C(O)CS(=O)(=O)CN1C(=O)C(Cc2ccccc2)N(Cc2ccccc2)S1(=O)=O (stereo unspecified)
-- reply 4.40

-- ask Dear colleague, I am looking for the recorded log10 of K inact/Ki of the following compound: O=C(O)c1ccc(S(=O)(=O)CN2C(=O)C(Cc3ccccc3)N(Cc3ccccc3)S2(=O)=O)cc1 (stereo unspecified)
-- reply 4.82

-- ask Dear colleague, I am looking for the recorded log10 of K inact/Ki of the following compound: Nc1ccc2nc(SCN3C(=O)C(Cc4ccccc4)N(Cc4ccccc4)S3(=O)=O)sc2c1 (stereo unspecified)
-- reply 4.20

-- ask Dear colleague, I am looking for the recorded log10 of K inact/Ki of the following compound: O=C(O)CCS(=O)(=O)CN1C(=O)C(Cc2ccccc2)N(Cc2ccccc2)S1(=O)=O (stereo unspecified)
-- reply 4.24

-- ask Dear colleague, I am looking for the recorded log10 of K inact/Ki of the following compound: O=C(O)c1cccc(S(=O)(=O)CN2C(=O)C(Cc3ccccc3)N(Cc3ccccc3)S2(=O)=O)c1 (stereo unspecified)
-- reply 4.32

-- ask Dear colleague, I am looking for the recorded log10 of K inact/Ki of the following compound: O=C1C(Cc2ccccc2)N(Cc2ccccc2)S(=O)(=O)N1CSc1nnc(-c2ccccc2)o1 (stereo unspecified)
-- reply 2.69

-- ask Dear colleague, I am looking for the recorded log10 of K inact/Ki of the following compound: O=C(OCN1C(=O)C(Cc2ccccc2)N(Cc2ccccc2)S1(=O)=O)C(O)c1ccccc1 (stereo unspecified)
-- reply 4.09

-- ask Dear colleague, I am looking for the recorded log10 of K inact/Ki of the following compound: O=C1C(Cc2ccccc2)N(Cc2ccccc2)S(=O)(=O)N1CS(=O)(=O)c1ccccc1 (stereo unspecified)
-- reply 4.05

-- ask Dear colleague, I am looking for the recorded log10 of K inact/Ki of the following compound: O=C(CO)OCN1C(=O)C(Cc2ccccc2)N(Cc2ccccc2)S1(=O)=O (stereo unspecified)
-- reply 4.11

-- ask Dear colleague, I am looking for the recorded log10 of K inact/Ki of the following compound: O=C(O)c1ccccc1S(=O)(=O)CN1C(=O)C(Cc2ccccc2)N(Cc2ccccc2)S1(=O)=O (stereo unspecified)
-- reply 2.54

-- ask Dear colleague, I am looking for the recorded log10 of K inact/Ki of the following compound: CC(O)C(=O)OCN1C(=O)C(Cc2ccccc2)N(Cc2ccccc2)S1(=O)=O (stereo unspecified)
-- reply 4.10

-- ask Dear colleague, I am looking for the recorded log10 of K inact/Ki of the following compound: CC(=O)OCN1C(=O)C(Cc2ccccc2)N(Cc2ccccc2)S1(=O)=O (stereo unspecified)
-- reply 4.03

-- ask Dear colleague, I am looking for the recorded log10 of K inact/Ki of the following compound: O=C1C(Cc2ccccc2)N(Cc2ccccc2)S(=O)(=O)N1CSc1nc2ccccc2o1 (stereo unspecified)
-- reply 4.23

-- ask Dear colleague, I am looking for the recorded log10 of K inact/Ki of the following compound: CS(=O)(=O)CN1C(=O)C(Cc2ccccc2)N(Cc2ccccc2)S1(=O)=O (stereo unspecified)
-- reply 3.93

-- ask Dear colleague, I am looking for the recorded log10 of K inact/Ki of the following compound: CN1C(Cc2ccccc2)C(=O)N(CSc2nc3ccccc3o2)S1(=O)=O (stereo unspecified)
-- reply 2.63

-- ask Dear colleague, I am looking for the recorded log10 of K inact/Ki of the following compound: O=C(O)CC(=O)OCN1C(=O)C(Cc2ccccc2)N(Cc2ccccc2)S1(=O)=O (stereo unspecified)
-- reply 4.36
